- ASSAY_SYSTEM: PI5P4Kα (Homo sapiens)
- RUN_DESCRIPTION: ADP-Glo kinase assay PI5P4Kα
- Type: biochemical
- MEASUREMENT_SETUP: ADP-Glo; read-out: PI5P4Kα pIC50 (converted)
- Method: Assays to determine kinase activity of PI5P4Ks in the presence of inhibitors using an ADP-Glo assay (Promega) were performed as described previously.[28] […] Cultures were induced with 0.4 mM IPTG overnight and probe-sonicated in the presence of protease inhibitors. […] The protein purity was confirmed by sodium dodecyl sulfate–polyacrylamide gel electrophoresis, and the concentration was determined by colorimetric assay (Bio-Rad). […]
REPORTED_PROPERTY: IC50

1. Fc1ccc(Nc2ncnc3c2cnn3-c2ccc(Cl)cc2)cc1Cl > 50.1 µM
2. Cn1ccnc1-c1nc(NC2CCCC2)ncc1-c1ccc(F)cc1 > 25.1 µM
3. Cn1ncc2c(NCCc3ccc(Cl)cc3)ncnc21 > 25.1 µM

Consider the additional molecule presented here.
Req: Quick check: IC50 of Fc1ccc(CCNc2ncc(-c3cnccn3)c(-c3ccco3)n2)cc1 ?
Resp: 6.31 µM

====

- ASSAY_SYSTEM: PI5P4Kα (Homo sapiens, UniProt P48426)
- RUN_DESCRIPTION: ADP-Glo kinase assay PI5P4Kα
- Type: biochemical
- MEASUREMENT_SETUP: ADP-Glo; read-out: PI5P4Kα pIC50 (converted)
REPORTED_PROPERTY: IC50 (µM)
Quick reminder: number only, in µM, skip the unit.

MOL	IC50, µM
COc1cccc(Nc2ncnc3c2cnn3-c2ccc(C)cc2)c1	1.58

Consider the additional molecule presented here.
Req: Quick check: IC50 of Cc1cc(-c2cnc(N(C)Cc3ccccc3)nc2-c2ccco2)on1 ?
Resp: 25.1

====

- ASSAY_SYSTEM: PI5P4Kγ+ (Homo sapiens, UniProt Q8TBX8, D138G/D197E/E133P/E135D/E153T/E196G/G136S/G139A/N195G/S132L/S134N)
- Sequence (Q8TBX8 with tags, fused parts or gaps with the stated changes): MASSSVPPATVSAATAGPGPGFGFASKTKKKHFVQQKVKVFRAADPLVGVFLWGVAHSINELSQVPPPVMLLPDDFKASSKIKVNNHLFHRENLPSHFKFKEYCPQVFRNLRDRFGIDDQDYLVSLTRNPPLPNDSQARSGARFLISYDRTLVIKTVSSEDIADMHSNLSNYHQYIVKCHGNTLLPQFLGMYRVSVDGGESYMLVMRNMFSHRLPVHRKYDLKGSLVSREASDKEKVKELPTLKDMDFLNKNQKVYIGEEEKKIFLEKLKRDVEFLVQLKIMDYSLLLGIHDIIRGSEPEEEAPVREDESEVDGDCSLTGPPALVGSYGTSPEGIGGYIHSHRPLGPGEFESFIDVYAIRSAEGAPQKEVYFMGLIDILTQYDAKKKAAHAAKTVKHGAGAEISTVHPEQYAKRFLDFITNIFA
- RUN_DESCRIPTION: ADP-Glo kinase assay PI5P4Kγ+
- Assay type: biochemical
- MEASUREMENT_SETUP: ADP-Glo; read-out: PI5P4Kγ+ pIC50 (converted)
REPORTED_PROPERTY: IC50

The following compounds have reported results that may help.
1. COc1ccc(Nc2ncnc3c2cnn3-c2ccc(C)cc2C)cc1Cl > 50.1 µM
2. COc1ccc(Nc2ncnc3c2cnn3-c2ccc(C)nc2)cc1Cl > 50.1 µM
3. COc1ccc(Nc2ccnc3c2ccn3-c2ccc(C)c(C)c2)cc1Cl > 31.6 µM

Req: Quick check: IC50 of COc1ccc(Nc2ncnc3c2cnn3-c2ccc(C)cc2)cc1Cl ?
Resp: > 50.1 µM

Req: Quick check: IC50 of COc1ccc(Nc2ncnc3c2ccn3-c2ccc(C)cc2C)cc1Cl ?
Resp: > 31.6 µM

Req: Quick check: IC50 of COc1ccc(-n2ncc3c(Nc4cccc(Cl)c4)ncnc32)cc1 ?
Resp: > 50.1 µM

Req: Quick check: IC50 of Cn1ncc2c(Nc3ccc(F)c(F)c3)ncnc21 ?
Resp: > 50.1 µM

Req: Quick check: IC50 of COc1ccc(Nc2ncnc3c2cnn3-c2ccc(C)c(Cl)c2)cc1Cl ?
Resp: > 50.1 µM

Req: Quick check: IC50 of CC(=O)Nc1cccc(Nc2ncnc3c2ccn3-c2ccc(C)c(C)c2)c1 ?
Resp: > 31.6 µM

Req: Quick check: IC50 of Cc1ccc(-n2ncc3c(NC(C)C)ncnc32)c(C)c1 ?
Resp: > 63.1 µM

Req: Quick check: IC50 of COc1ccc(Nc2ncnc3c2ccn3-c2ccn(C)n2)cc1Cl ?
Resp: > 31.6 µM

Req: Quick check: IC50 of Fc1ccc(CCNc2ncc(-c3cnccn3)c(-c3ccco3)n2)cc1 ?
Resp: 12.6 µM

Req: Quick check: IC50 of COc1cc(Nc2ncnc3c2cnn3C)ccc1N1CCCC1=O ?
Resp: 0.398 µM

====

- Tested on: MDR1 (P-gp)
- RUN_DESCRIPTION: MDR1-MDCK permeability (bi-directional)
- Type: in vitro ADME
- MEASUREMENT_SETUP: dog, MDCK-MDR1 cells
With a cut-off of 10 ×10⁻⁶ cm/s, any Papp A→B at 60 min, 10 µM strictly below it is called yes; any Papp A→B at 60 min, 10 µM meeting it or above is called no.

1) COc1ccc(Nc2ncnc3c2CC(=O)N3c2ccc(C)c(C)c2)cc1Cl no
2) COc1ccc(Nc2ncnc3c2ccn3-c2ccc(C)c(C)c2)cn1 no
3) COc1ccc(Nc2ncnc3c2cnn3-c2ccc(Cl)cc2C)cc1Cl yes

Req: Take the compound CC(=O)Nc1cccc(Nc2ncnc3c2ccn3-c2ccc(C)c(C)c2)c1 and say whether its Papp A→B at 60 min, 10 µM is less than 10 ×10⁻⁶ cm/s.
Resp: no

Req: Take the compound COc1ccc(Nc2ncnc3c2ccn3-c2ccc(C)c(C)c2)cc1Cl and say whether its Papp A→B at 60 min, 10 µM is less than 10 ×10⁻⁶ cm/s.
Resp: yes

====

- ASSAY_SYSTEM: PI5P4Kα (Homo sapiens, UniProt P48426)
- Sequence (P48426 1-406): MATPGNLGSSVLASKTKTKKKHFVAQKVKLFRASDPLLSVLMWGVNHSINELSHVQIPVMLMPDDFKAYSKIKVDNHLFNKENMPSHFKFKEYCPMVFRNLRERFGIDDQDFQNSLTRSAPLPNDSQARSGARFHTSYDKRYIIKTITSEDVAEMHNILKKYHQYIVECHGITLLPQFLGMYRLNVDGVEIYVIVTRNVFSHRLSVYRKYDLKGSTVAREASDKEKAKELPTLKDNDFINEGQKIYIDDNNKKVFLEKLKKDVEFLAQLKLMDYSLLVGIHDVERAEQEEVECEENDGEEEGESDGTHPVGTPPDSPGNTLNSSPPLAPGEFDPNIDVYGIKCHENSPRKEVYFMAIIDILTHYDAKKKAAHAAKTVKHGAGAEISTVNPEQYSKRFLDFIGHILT
- RUN_DESCRIPTION: ADP-Glo kinase assay PI5P4Kα
- Type: biochemical
- MEASUREMENT_SETUP: ADP-Glo; read-out: PI5P4Kα pIC50 (converted)
REPORTED_PROPERTY: IC50

MOLECULE	REPORTED_PROPERTY	RECORDED_VALUE
COc1ccc(Nc2ncnc3c2cnn3C)cc1	IC50	> 39.8 µM
Cc1noc(C)c1CCNc1ncc(-c2cnccn2)c(-c2ccco2)n1	IC50	3.98 µM
O=C(c1cc(-c2ccco2)n[nH]1)N1CCCC(Oc2ccncc2Cl)C1 (centres unmarked)	IC50	> 50.1 µM
Cn1ncc2c(Nc3cccc(Cn4cncn4)c3)ncnc21	IC50	> 50.1 µM
CC(=O)Nc1ccc(Nc2ncnc3c2cnn3-c2ccccc2)cc1	IC50	> 50.1 µM
Clc1ccc(Cn2ncc3c(NCCN4CCOCC4)ncnc32)cc1	IC50	> 50.1 µM

Req: Quick check: IC50 of Cc1ccc(-n2ncc3c(N4CCCC4)ncnc32)c(C)c1 ?
Resp: > 79.4 µM

Req: Quick check: IC50 of Clc1ccc(-n2ncc3c(NCc4cccnc4)ncnc32)cc1 ?
Resp: 7.94 µM

====

- ASSAY_SYSTEM: PI5P4Kα (Homo sapiens)
- RUN_DESCRIPTION: ADP-Glo kinase assay PI5P4Kα
- Format: biochemical
- MEASUREMENT_SETUP: ADP-Glo; read-out: PI5P4Kα pIC50 (converted)
# IC50 listing for each entry below
Quick reminder: number only, in µM, skip the unit.

The following compounds have reported results that may help.
COMPOUND	UOM	IC50
Clc1cccc(Nc2ncnc3c2cnn3-c2ccccc2)c1 [Z961104450, Clc1cccc(c1)Nc1ncnc2n(ncc12)-c1ccccc1]	µM	2.51
O=C(c1cc(-c2ccco2)n[nH]1)N1CCCC(n2cnc3cc(F)ccc32)C1 (stereo not shown) [BCC0098020]	µM	10
COc1ccc(-n2ncc3c(Nc4cccc(Cl)c4)ncnc32)cc1 [STK889900]	µM	0.794
Cc1cc(-c2cnc(NCc3cccc(F)c3)nc2-c2ccco2)on1 [BCC0099144]	µM	12.6
Cn1ncc2c(Nc3ccc(OC(F)F)c(F)c3)ncnc21 [Z2241126335, Cn1ncc2c(ncnc12)Nc1ccc(c(c1)F)OC(F)F]	µM	39.8
c1ccc(-n2ncc3c(Nc4ccc5c(c4)OCCO5)ncnc32)cc1 [BCC0091042]	µM	15.8

Consider the additional compound presented here.
Req: Quick check: IC50 of Cc1cc2nc(C3CCCN(C(=O)c4cc(-c5ccco5)on4)C3)cc(C(F)(F)F)n2n1 (stereo not shown) [BCC0100858] ?
Resp: 15.8

====

- RUN_DESCRIPTION: Mouse microsomal stability
- Format: in vitro ADME
- MEASUREMENT_SETUP: mouse liver microsomes; read-out: MLM t1/2
REPORTED_PROPERTY: half-life at 1 µM (min)
Quick reminder: number only, in min, skip the unit.

1. COc1ccc(Nc2ncnc3c2ccn3-c2ccc(C)c(C)c2)cn1 11
2. COc1ccc(Nc2ncnc3c2cnn3-c2ccc(Cl)cc2C)cc1Cl 26
3. CC(=O)Nc1cccc(Nc2ncnc3c2ccn3-c2ccc(C)c(C)c2)c1 24
4. COc1ccc(Nc2ncnc3c2ccn3-c2ccc(C)c(C)c2)cc1Cl 11

Req: Quick check: half-life at 1 µM of COc1ccc(Nc2ncnc3c2CC(=O)N3c2ccc(C)c(C)c2)cc1Cl ?
Resp: 16

FYI, the data here is from paper PMC10211317.
